# Measured on: type IC cascade from Neisseria lactamica with crRNA (Neisseria lactamica)
# Assay info: SPR; BIAcore T200; NlaCascade/crRNA complex captured on a Ni-loaded NTA chip (711-826 RU); AcrIC9 injected in twofold dilutions from 125 nM at 30 ul/min, 120 s contact, 240 s dissociation; 25 °C; HBS-P buffer (0.01 M HEPES pH 7.4, 0.15 M NaCl, 0.005% Surfactant P20); 1:1 binding model
Metric name: pKd
To interpret pKd, take it as minus log10 of a concentration measured in moles per litre.

Ask | Please list pKd recorded for the binder AcrIC9 from Rhodobacter capsulatus (natural protein) METKMTSFYKITAYNSQALYFWGTDADVDRYVDWLNRDREINVYAAEAIPEAEWAQYEGRDDVLSGEECGWDDFMSAEA
Reply | 7.36
